target: MeCP2-TBL1 interaction (MeCP2-SmBiT / TBL1-LgBiT) (Mus musculus); construct: expressed in transfected cells; crude lysate used as a cell-free assay; test: MeCP2-TBL1 NanoLuc luciferase complementation assay (cell-free, extracts of transfected HEK293 cells); assay type: binding, human; details: primary screen of Asinex library, single well per compound;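 further: each compound tested at 20 µM final concentration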
Sequence (Q9QXE7 166-527): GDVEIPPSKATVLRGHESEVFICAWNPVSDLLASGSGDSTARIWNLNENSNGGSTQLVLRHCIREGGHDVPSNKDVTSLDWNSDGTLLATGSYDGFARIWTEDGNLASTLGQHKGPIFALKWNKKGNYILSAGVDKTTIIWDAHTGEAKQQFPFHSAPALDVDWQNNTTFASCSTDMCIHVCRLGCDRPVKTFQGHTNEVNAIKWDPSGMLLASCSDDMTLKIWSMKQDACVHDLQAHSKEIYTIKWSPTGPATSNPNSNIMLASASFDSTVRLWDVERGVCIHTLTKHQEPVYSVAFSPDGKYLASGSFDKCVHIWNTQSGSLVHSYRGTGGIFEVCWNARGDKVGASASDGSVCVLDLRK
Listing of recorded Inhibition percent by entry.
Please reply with the value in numeric form only.

> print(dat)
                                    compound                     target.or.test.system  numeric.value
 1  O=C1CCCC[C@]2(CN(Cc3ccnc(N4CCCCC4)n3)C[C@H]2c2ccccc2)N1 [BDH_32353018]  MeCP2-TBL1 interaction (MeCP2-SmBiT / TBL1-LgBiT) (Mus musculus)          -0.90
 2  Cc1nc(Nc2ncc(C#N)s2)ccc1CC1COCCN(S(C)(=O)=O)C1 (stereo not drawn) [BDG_51128826]  MeCP2-TBL1 interaction (MeCP2-SmBiT / TBL1-LgBiT) (Mus musculus)          -0.16
 3  COc1ccc(NC(C)=O)c(NC(=O)CN2C[C@H]3CCC[C@H](Cc4cnccn4)[C@H]3C2)c1 [BDH_33621771]  MeCP2-TBL1 interaction (MeCP2-SmBiT / TBL1-LgBiT) (Mus musculus)           0.12
 4  COc1cccc([C@@H]2C[C@]3(C)NC(=O)CCCC[C@@H]3N2CC(=O)Nc2cc(C)ccc2F)c1 [BDH_33619764]  MeCP2-TBL1 interaction (MeCP2-SmBiT / TBL1-LgBiT) (Mus musculus)          -0.65
 5  COc1cccc(C2CN(Cc3ccccc3)C(=O)C23CCN(Cc2cccc(C(=O)O)c2)CC3)c1 (stereo not drawn) [BDH_34129947]  MeCP2-TBL1 interaction (MeCP2-SmBiT / TBL1-LgBiT) (Mus musculus)          -0.66
 6  Cc1nc2ccc(NC(=O)CN3C[C@@H](c4cc(F)cc(F)c4)[C@@]4(CCCCC(=O)N4)C3)cc2[nH]1 [BDH_33616136]  MeCP2-TBL1 interaction (MeCP2-SmBiT / TBL1-LgBiT) (Mus musculus)          -1.00
 7  Cc1cc(C)nc(NCCCC(=O)N2[C@H](Cc3ccccc3)C[C@]3(C)NC(=O)CCC[C@H]23)n1 [BDG_24639132]  MeCP2-TBL1 interaction (MeCP2-SmBiT / TBL1-LgBiT) (Mus musculus)          -1.41
 8  NC(=O)c1cccc(-c2nccnc2C2CCCN(C(=O)COc3ccc(F)cc3)C2)c1 (stereo not drawn) [BDD_27905103]  MeCP2-TBL1 interaction (MeCP2-SmBiT / TBL1-LgBiT) (Mus musculus)          -2.79
 9  O=C1CNC(=O)C2(C/C=C/C[C@H]3COCC[C@H]3N1)CCN(c1ncccn1)CC2 [BDH_33727647]  MeCP2-TBL1 interaction (MeCP2-SmBiT / TBL1-LgBiT) (Mus musculus)          -1.79
10  CNC(=O)C1CN(C(=O)C2(C)CCN(C(=O)c3ccccc3)CC2)CCN1Cc1ccccc1 (stereo not drawn) [BDH_32370904]  MeCP2-TBL1 interaction (MeCP2-SmBiT / TBL1-LgBiT) (Mus musculus)          -3.09

Asked: Any idea what Inhibition percent was measured for Cc1cc(O)cc(=O)n1CC(=O)N1CCCCC1C1CCN(C(=O)Cc2ccccc2F)CC1 (stereo not drawn) [BDH_33628360] ?
Given back: -0.67

Asked: Any idea what Inhibition percent was measured for CC1(C)Oc2c(O)cccc2[C@@H]2O[C@@H]3CCN(C(=O)CCCc4cn[nH]c4)C[C@@H]3C[C@H]21 [BDG_34130377] ?
Given back: 1.08

Asked: Any idea what Inhibition percent was measured for O=C(c1ccc(Cc2ccc(F)cc2)nc1)N1CCCC2(CC1)CN(c1ccccc1)C(=O)O2 (stereo not drawn) [BDH_32295955] ?
Given back: -2.84

Asked: Any idea what Inhibition percent was measured for C[C@]12C[C@@H](c3ccccc3)N(CC(=O)N3CC(=O)Nc4ccccc43)[C@H]1CCCCCN2 [BDH_32250993] ?
Given back: 1.88

Asked: Any idea what Inhibition percent was measured for Cc1ccc(C(=O)N2C[C@@H](c3ccc(F)cc3)[C@@]3(CCCC(=O)N3)C2)cc1NCc1ccccn1 [BDH_32371225] ?
Given back: -3.76

Asked: Any idea what Inhibition percent was measured for CC(C)(CC(=O)O)CC(=O)N1CC[C@@H]2O[C@@H]3c4cc(Cl)ccc4OC(C)(C)[C@H]3C[C@@H]2C1 [BDG_34130555] ?
Given back: 0.45

Asked: Any idea what Inhibition percent was measured for COCCOc1cccc(CN2[C@H](Cc3ccccc3F)C[C@@H]3NC(=O)CCCC[C@H]32)c1 [BDG_23917768] ?
Given back: -0.22

Asked: Any idea what Inhibition percent was measured for CN1C(=O)N(CC(=O)N2CCCCC2CCNC(=O)c2ccccc2)C(=O)C12CCCCC2 (stereo not drawn) [BDH_33629465] ?
Given back: 1.86

Asked: Any idea what Inhibition percent was measured for CC(=O)c1ccc(NC(=O)CN2CCC[C@@H]3O[C@@H]4c5cc(Cl)ccc5OC(C)(C)[C@H]4C[C@@H]32)cc1 [BDG_51129056] ?
Given back: -1.84

Asked: Any idea what Inhibition percent was measured for O=C(N1CCC(Cc2ccc3ncccc3c2)CC1)C1(c2ccccc2)CCOCC1 [BDH_32341682] ?
Given back: 1.41

Asked: Any idea what Inhibition percent was measured for COc1ccc(C(=O)N2CCCC(Cc3cccc4ncccc34)C2)cc1NCc1ccncc1 (stereo not drawn) [BDH_32359947] ?
Given back: -3.52

Asked: Any idea what Inhibition percent was measured for Cc1c(CN2C[C@H](c3ccc(F)cc3)[C@@H](O)[C@H]2C(=O)NCCc2ccccc2)[nH]c2ccc(F)cc12 [BDG_34027529] ?
Given back: 6.14

Asked: Any idea what Inhibition percent was measured for O=C1CCCN1CCOc1cccc(C(=O)N2CCCC(Cc3ccnc4ccccc34)CC2)c1 (stereo not drawn) [BDH_32358595] ?
Given back: -2.39

Asked: Any idea what Inhibition percent was measured for CC(C)(NC(=O)Cc1ccccc1)C(=O)N1CCCC(Cc2cccc3ncccc23)C1 (stereo not drawn) [BDH_32327552] ?
Given back: -4.87
